method.description: gradient 5% acetonitrile 3 min, to 50% in 2 min, to 85% in 15 min, held 3 min, 100 µL/min
protocol.conditions: column: Zorbax Extend-C18 2.1 x 50 mm; eluents: water / acetonitrile, 0.1% formic acid
// RP-LC retention time lookup, one value per entry

Some entries whose results are on file:
O=C(c1ncccn1)N1C[C@@H](COCC2CC2)[C@H](c2ccncc2)C1 = 654 s
CC1=C(c2cccc(Cl)c2)S(=O)(=O)N=C1N1CCCN(C(=O)c2ccco2)CC1 = 818 s
COc1cc(Cl)c(NC(=O)C2CC(=O)N(c3cccc(NC(C)=O)c3)C2)c(OC)c1 (stereo not given) = 711 s

// RP-LC retention time value for CN(C)c1nccnc1OC1CCN(C(=O)C2CCCCC2)C1 (stereo not given) : 765 s

// RP-LC retention time value for `Cc1ncn(CC(=O)Nc2ccccc2F)c(=O)c1C` : 628 s

// RP-LC retention time value for `COc1ccc(-c2nnc(-c3ccc(C)c(S(=O)(=O)Nc4cccnc4)c3)o2)cc1OC` : 722 s

// RP-LC retention time value for Cc1ccc(-n2cc3c(N4CCCC(C(=O)NCc5ccc(OC(C)C)cc5)C4)ncnc3n2)cc1 (stereo not given) : 765 s

// RP-LC retention time value for `COc1cccc(NS(=O)(=O)c2ccc3c(c2)C(=O)N(C)c2ncccc2O3)c1` : 889 s

// RP-LC retention time value for `Cc1c(N2CCN(C(=O)c3cccc(F)c3)CC2)c(=O)n(C)c(=O)n1C` : 698 s

// RP-LC retention time value for CC(CCNC(=O)c1cc(S(=O)(=O)N2CCCCC2)ccc1Cl)N1CCCC1 (stereo not given) : 643 s

// RP-LC retention time value for `CNC(=O)c1[nH]c2ccc(C)cc2c1N1CCCC1=O` : 675 s

// RP-LC retention time value for CCNC(=O)C1CCCN(c2nc3ncn(CC(=O)Nc4ccc(F)cc4Cl)c(=O)c3s2)C1 (stereo not given) : 681 s

// RP-LC retention time value for O=C(Cc1cccs1)N1CCc2c([nH]c3ccccc23)C1c1ccc(Cl)cc1 (stereo not given) : 1220 s

// RP-LC retention time value for `CCCNC(=O)c1cn(-c2ccc(NC(=O)CC)cn2)cn1` : 636 s

// RP-LC retention time value for `O=C(c1ccc(N2CCCC2)c(S(=O)(=O)N2CCCC2)c1)N1CCN(c2ccccn2)CC1` : 664 s

* * *

method.description: gradient 5% acetonitrile 3 min, to 50% in 2 min, to 85% in 15 min, held 3 min, 100 µL/min
protocol.conditions: column: Zorbax Extend-C18 2.1 x 50 mm; eluents: water / acetonitrile, 0.1% formic acid
observed.property: RP-LC retention time (s)
Respond with the bare value in s.

Some entries whose results are on file:
O=C(CCC1CCCN(S(=O)(=O)c2cccc(F)c2)C1)NC1CCCCC1 (centres undefined) = 936
COC[C@@H]1CN(S(=O)(=O)c2c(C)noc2C)C[C@H]1c1ccncc1 = 570
Oc1c(C(Nc2nccs2)c2ccc(F)cc2)ccc2cccnc12 (centres undefined) = 654
CCC1CN(C(=O)N2CCC(C(=O)NCCN3CCOCC3)CC2)c2ccccc2O1 (centres undefined) = 630
CCc1ccccc1NC(=O)CSc1nnc2c3cc(-c4ccc(C)c(C)c4)nn3ccn12 = 1050
CCc1sc(NC(=O)c2cc3c([nH]c2=O)CCCC3=O)nc1-c1ccc(C)c(C)c1 = 1030

// RP-LC retention time value for `O=c1c2ccccc2ncn1-c1ccc(Cl)cc1` : 870

// RP-LC retention time value for `C[C@@H](NC(=O)c1cc(C(=O)N[C@@H](Cc2ccccc2)[C@H](O)CNC2CC2)cc(N(C)S(C)(=O)=O)c1)c1ccccc1` : 705

// RP-LC retention time value for COc1cccc(-c2noc(C3CCCN3C(=O)Nc3cc(OC)ccc3OC)n2)c1 (centres undefined) : 849

// RP-LC retention time value for `CCCCNC(=O)C1CCN(C(=O)Nc2ccc(NC(=O)NC3CCCC3)cc2)CC1` : 684

// RP-LC retention time value for `CC1=C(c2ccc(Cl)cc2)S(=O)(=O)N=C1N1CCCN(C(=O)C(C)C)CC1` : 822

// RP-LC retention time value for `CCCc1nc(-c2c(C)cc(C)nc2NC(=O)c2ccccc2F)no1` : 883

// RP-LC retention time value for `Cc1ccccc1CNS(=O)(=O)c1ccc(-c2c(C)noc2C)cc1` : 959
